assay: Cytotoxicity in mouse J774 cells assessed as cell viability after 48 hrs by MTT assay; format: cell-based; settings: read-out: ID50

{"compound": "NC(=S)N/N=C\\c1ccccc1OCc1ccc2no[n+]([O-])c2c1", "CC50 at 48 h": "< 100 µM"}
{"compound": "C=CCNC(=S)N/N=C\\c1ccccc1OCc1ccc2no[n+]([O-])c2c1", "CC50 at 48 h": "138 µM"}
{"compound": "O=Cc1ccccc1OCc1ccc2no[n+]([O-])c2c1", "CC50 at 48 h": "78 µM"}
{"compound": "CC1(C)[N+]([O-])=c2ccc(COc3ccccc3/C=N\\NC(=S)Nc3ccccc3)cc2=[N+]1[O-]", "CC50 at 48 h": "< 100 µM"}
{"compound": "N=C(N)N/N=C\\c1ccccc1OCc1ccc2no[n+]([O-])c2c1", "CC50 at 48 h": "< 100 µM"}
{"compound": "NC(=O)N/N=C\\c1ccccc1OCc1ccc2no[n+]([O-])c2c1", "CC50 at 48 h": "< 100 µM"}
{"compound": "[O-][n+]1onc2ccc(COc3ccccc3/C=N\\NC(=S)Nc3ccccc3)cc21", "CC50 at 48 h": "> 400 µM"}
{"compound": "CC1(C)[N+]([O-])=c2ccc(COc3ccc(C=O)cc3)cc2=[N+]1[O-]", "CC50 at 48 h": "< 100 µM"}
